# STUDY TARGET: T1, human dimeric EGFR (EGFR.mFc) (human)
# T1 construct: Soluble dimeric EGFR construct
# TEST NAME: SPR 37C, mAb captured by anti-human Fc, EGFR.mFc analyte
Give measured kon for each item. Keep answers brief.
Answer with a number only, understood to be in M⁻¹ s⁻¹.

According to the records, this binder H1H102N (antibody, human IgG1, V domains shown, Tested in human IgG1 Fc format (H1H); also called H1M102N) VH: QVQLQESGPGLVQPSQTLSLTCTVSGGSVSSGDYYWSWIRQHPGKGLEWIGHIYYSGITYYNPSLESRVTITLDTSKNQFSLNLRSVTAADTAVHYCARTAIIGTMDNWGRGTLVTVSS VL: EIVMTQSPATLSVSPGERATLSCRASQSVSSNLAWYQQKPGQAPRLLIYDASTRATGFPARFSGSGSGTEFTLTISSLQSEDFAVYYCQQYNTWWTFGQGTKVEIK displays kon of 863000

// kon value for H1H161P (antibody, human IgG1, V domains shown, Human IgG1 Fc (H1H)) VH: QVQLVESGGGVVQPGRSLRLSCAASGFTFSNYGMYWVRQAPGKGLEWVTFISYDGSNKNYVDSMKGRFTISRDNSKNTLYLQMNSLRVEDTAVYYCAKDRISGTPWYGMDVWGQGTTVTVSS VL: DIQMTQSPSSLSASVGDRVTITCRASQDIADYLAWFQQKPGKAPKSLIFAASSLESWVPLKFSGSGSGTDFTLTISSLQPEDFATYYCQQYSRFPITFGQGTKVEIK : 1.73e+06

kon reading for H1H116N (antibody, human IgG1, V domains shown, Tested in human IgG1 Fc format (H1H); also called H1M116N) VH: QVQLQESGPGLVKPSQTLSLTCTVSGGSVSSGDYYWSWIRQHPGKGLDWIGHIYYSGSTYYNPSLKSRVTISLDTSKNQFSLKLNSVTAADTAVYYCARTAITGTMDYWGQGTLVTVSS VL: EIVMTQSPATLSVSAGERATLSCRASQSVSSNLAWFQQKPGQAPRLLIYDASTRATGIPARFSGSGSGTEFTLIISSLQSEDFALYYCQQYNSWWTFGQGTKVEIK : 1.55e+06

The binder listed as H1H163P (antibody, human IgG1, V domains shown, Human IgG1 Fc (H1H)) VH: QVQLVESGGGVVQPGRSLRLSCAASGFTFSNYGMHWVRQAPGKGLEWVTLIEHDGSNKNYVDSVKGRFTISRDNSKNTLYLQMNSLRVEDTAVYYCAKDRITGTPWYGMDVWGQGTTVTVSS VL: DIQMTQSPSSLSASVGDRVTITCRASQDIADYLAWFQQKPGKAPKSLIFAASSLESWVPLKFSGSGSGTDFTLTISSLQPEDFATYYCQQYNRFPITFGQGTRLEIK shows kon equal to 1.81e+06

Recorded result, H1H142P (antibody, human IgG1, V domains shown, Human IgG1 Fc (H1H)) VH: QVQLQESGPGLVKPSQTLSLTCTVSGGSISSGDYYWNWIRQYPGKGLELIGYIYYSGITYYNPSLKSRLTISLDTSKNQFSLKLSSVTAADTAVYYCARDRVELRAFDIWGQGTMVTVSS VL: DIQMTQSPSSLSASIGDRITISCQASQDINNYLNWYQQKPGKAPKLLIYDASNLETGIPSRFSGSGSGTDFTFTISGLQPEDIATYYCQHYDSLPLTFGQGTRLEIK , kon: 361000

The reported numbers originate from patent US20180036405A1.
